System: ovarian cancer cell line panel
Test: Cytotoxicity in ovarian cancer cell line panel (cell line not specified)
Assay type: cell-based, human
Method: It is noteworthy that the acetate compounds maintain cytotoxicity with low resistance factors in all cases. The trans-[Pt(OAc)2(NH3)2] compound is also very water-soluble but the cytotoxicity of >100 μM confirms the requirement for a planar amine to enhance cytotoxicity in the trans geometry.
pIC50: −log10 of the molar value.
ENDPOINT LABEL: pIC50

Field pIC50 (entry CC(=O)[O][Pt][O]C(C)=O.N.N [trans-[Pt(OAc)2(NH3)2]] ) reads < 4.00

* * *

Tested on: A2780
Test: Growth inhibition in human ovarian cancer cell line panel, 96 h exposure
Format: cell-based
ENDPOINT LABEL: pIC50
// pIC50 is dimensionless: -log10 of concentration (M)

Field pIC50 (entry CC(=O)[O-].CC(=O)[O-].N.[Pt+2].c1ccc2cnccc2c1 [trans-[Pt(OAc)2(NH3)(iquin)]] ) reads 4.89

* * *

Experiment: Initial hydrolysis of TPA carboxylates monitored by HPLC at 37° C.
Format: physicochemical
Conditions: H2O, I=0.02 M
ENDPOINT LABEL: k1, initial hydrolysis rate constant (s⁻¹)
Write down the numeric answer in s⁻¹ and omit the unit.

Observe how each entry below is paired with its result.
{"columns": ["COMPOUND", "RESULT UNIT", "k1, initial hydrolysis rate constant"],
 "data": [
  ["CC(=O)[O][Pt][O]C(C)=O.Cc1ccncc1.N", "s⁻¹", "3.26e-06"],
  ["Cc1ccncc1.N.O=C(CO)[O][Pt][O]C(=O)CO [4d, trans-[Pt(OAcOH)2(NH3)(4-pic)]]", "s⁻¹", "5.61e-06"],
  ["Cc1ccncc1.N.O=C[O-].O=C[O-].[Pt+2] [4e, trans-[Pt(OFm)2(NH3)(4-pic)]]", "s⁻¹", "1.07e-05"],
  ["CC(=O)[O-].CC(=O)[O-].Cc1ccccn1.N.[Pt+2] [2c, trans-[Pt(OAc)2(NH3)(2-pic)]]", "s⁻¹", "1.07e-06"]
]}

Moving on to another compound below.
Field k1, initial hydrolysis rate constant (entry CC(=O)[O][Pt][O]C(C)=O.Cc1cccnc1.N ) reads 3.52e-06

* * *

System: 41M
Experiment: Growth inhibition in human ovarian cancer cell line panel, 96 h exposure
Format: cell-based
The compounds listed here are annotated with their pIC50.
// pIC50 is dimensionless: -log10 of concentration (M)

{"columns": ["COMPOUND", "pIC50"],
 "data": [
  ["CC(=O)[O-].CC(=O)[O-].N.[Pt+2].c1ccc2cnccc2c1 [trans-[Pt(OAc)2(NH3)(iquin)]]", 4.66]
]}

Moving on to another compound below.
Field pIC50 (entry N.N.[Cl][Pt][Cl] [Cisplatin, cis-[PtCl2(NH3)2], reference compound] ) reads 5.85
